Documented abundance fitness across a set of variants
B1: POU domain, class 3, transcription factor 2, residues 262 to 338; numbered along this chain, P20265 (parent)
chain: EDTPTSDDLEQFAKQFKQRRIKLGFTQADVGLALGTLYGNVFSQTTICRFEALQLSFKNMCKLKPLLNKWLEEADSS

Variants of: B1
Assay: abundance fitness (aPCA) (normalised: wild type 0, dead -1); higher = more abundant; growth selection in yeast, the domain comes from the species named
Conditions: Homo sapiens
Respond numerically, and do not add a unit to the figure.

EDTPTSDDLEQFAKQFKQRRIKLGFTQADVGLALGTLYGNVFSQTTICRFEALQLSFKNMCKLKPLLNKWLPEADSS [E72P]
-0.655
EDTPTSDDLEQFAKQFKQRRIKLGFTQADVGLALHTLYGNVFSQTTICRFEALQLSFKNMCKLKPLLNKWLEEADSS [G35H]
-0.06
EDTPTSDDLEQFAKQKKQRRIKLGFTQADVGLALGTLYGNVFSQTTICRFEALQLSFKNMCKLKPLLNKWLEEADSS [F16K]
-0.633
EDTPTSDDLEQFAKQFKQRRIKLGFTQADVGLALGTLYGNVFSQTTICRFEALQLSFKNDCKLKPLLNKWLEEADSS [M60D]
-0.961
EDTPTSDDLEQFAKQFKQRRIKLGFTQADVGLALGTLYGNVFSKTTICRFEALQLSFKNMCKLKPLLNKWLEEADSS [Q44K]
-0.009

Recorded abundance fitness for EDTPTSDDLEQFAKQFKQRRIKLGFTQADVGLALGTLYGNVFSQTTICRFETLQLSFKNMCKLKPLLNKWLEEADSS [A52T] , please?
-0.02

Recorded abundance fitness for EDTPTSDDLEQFAQQFKQRRIKLGFTQADVGLALGTLYGNVFSQTTICRFEALQLSFKNMCKLKPLLNKWLEEADSS [K14Q] , please?
0.075

Recorded abundance fitness for EDTPTSDDLEQFAKQFKQRRIKLGFTQADVGLALGTLDGNVFSQTTICRFEALQLSFKNMCKLKPLLNKWLEEADSS [Y38D] , please?
-0.036
